B1: Transcription elongation factor A N-terminal and central domain-containing protein, residues 30 to 77; numbered along this chain, Q8N8B7 (parent)
chain: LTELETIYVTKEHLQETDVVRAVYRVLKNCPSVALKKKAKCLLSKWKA

# Variants of: B1
# protocol: abundance fitness (aPCA) (normalised: wild type 0, dead -1); higher = more abundant; growth selection in yeast, the domain comes from the species named
# details: Homo sapiens
property.measured: abundance fitness

1) E16V : -0.279
2) L1C : -0.162
3) A39N : -0.61
4) A39D : -0.826
5) V20W : 0.07
6) V26I : -0.105
7) L42I : -0.283
8) K28W : 0.04
9) W46Q : -0.792
10) H13N : 0.07
11) L1R : -0.202
12) A22W : 0.256
13) L42G : -1.05
14) A39R : -0.968
15) W46E : -1.03
16) Y24G : -0.345
17) Q15F : -0.212
18) K28A : -0.509
19) E12A : -0.492
20) K28I : -0.149
21) C30H : -0.743
22) T2Q : -0.177

Source of measurements: the Human Domainome abundance scans (Beltran et al. 2025)
